Assay: viability loss with TRAIL in NB7+C8 cells, primary screen, TRAIL sensitizer project, cell-based, ATPlite luminescence (AID 624354)
Details: at 10 µM, hits give high values
Among all 360,000 compounds or so, about 3,800 (1.1%) were called active. For the sample, actives were picked, then their nearest neighbours and some compounds at random.
// inhibition (viability loss, TRAIL sensitization) lookup, one value per entry
Hi! Could you send only the number? It should be in %, unit omitted.

Exam item: Answer with the recorded inhibition (viability loss, TRAIL sensitization) for the compound listed here: CCOC(=O)C1=C(C)NC(C)=C(C(=O)OCC)C1C1=COCCO1
Marked response: -19.1

Exam item: Quick one: give measured inhibition (viability loss, TRAIL sensitization) for COCCN(C(=O)c1ccco1)c1nnc(-c2ccc(OC)cc2)s1
Marked response: 15.7

Exam item: Read the entry CC(=O)C[C@H](O)CC(=O)[C@@H]1OC(=O)[C@@H](C)C/C=C\Cc2ccccc21 and write its reported inhibition (viability loss, TRAIL sensitization).
Marked response: -3.79

Exam item: For CCOc1ccc(S(=O)(=O)N2CCC(c3ccccc3)CC2)cc1C(=O)O , write its inhibition (viability loss, TRAIL sensitization).
Marked response: -3.46

Exam item: Return inhibition (viability loss, TRAIL sensitization) for the following compound: Cc1ccccc1OCC(=O)NCC(=O)OCC(=O)c1ccc2ccccc2c1
Marked response: -20.2

Exam item: Quick one: give measured inhibition (viability loss, TRAIL sensitization) for CC(C)(C)Oc1ccccc1Nc1nc(NCCO)nc(N2CCCC2)n1
Marked response: -17.8

New cases:
Exam item: State, in one line, measured inhibition (viability loss, TRAIL sensitization) of CCOC(=O)C1CCN(C(=O)Cn2nc(C)c3c(C)n(-c4ccccc4)nc3c2=O)CC1
Marked response: -20.8

Exam item: Could you please provide reported inhibition (viability loss, TRAIL sensitization) for CC(/C=C/C1(O)C(C)CC(=O)CC1(C)C)OC1OC(CO)C(O)C(O)C1O (stereo not given) ? Thanks!
Marked response: 14.6

Exam item: Read the entry CN(CC(=O)Nc1cccc(F)c1)C(=O)C1CC(=O)N(CCc2ccccc2)C1 (stereo not given) and write its reported inhibition (viability loss, TRAIL sensitization).
Marked response: 0.466

Exam item: Identify measured inhibition (viability loss, TRAIL sensitization) associated with CCOC(=O)C1=C(C)OC(N)=C(C#N)C1c1cncc(-c2ccc(F)cc2)c1 (stereo not given)
Marked response: -2.49

---

Experiment: viability loss with TRAIL in NB7+C8 cells, primary screen, TRAIL sensitizer project, cell-based, ATPlite luminescence (AID 624354)
Settings: at 10 µM, hits give high values
Out of some 360,000 compounds screened, about 3,800 (1.1%) were called active. The entries come from a sample that favours actives as a whole.
PROPERTY_NAME: inhibition (viability loss, TRAIL sensitization) (%)
// units = %; emit number, no label

# example entries with known answers
Exam item: In one line, give reported inhibition (viability loss, TRAIL sensitization) of the entry C=CCn1cc(Cl)cc(C(=O)Nc2ccccc2)c1=O .
Marked response: 6.15

Exam item: Find the measured inhibition (viability loss, TRAIL sensitization) of Cc1ccc(/C=N/NC(=O)C2=NNC(c3ccccc3)(c3ccccc3)C2)c(O)c1 and report it.
Marked response: 20.2

Exam item: Name the recorded inhibition (viability loss, TRAIL sensitization) of the compound listed here: O=C(CC1SC(=Nc2ccccc2F)N(CCN2CCOCC2)C1=O)Nc1ccc(F)cc1F (stereo not given)
Marked response: 72.8

Exam item: Look up and state reported inhibition (viability loss, TRAIL sensitization) for O=C(NCCc1ccccc1Cl)C1CCC(=O)N(CCCc2ccccc2)C1 (stereo not given)
Marked response: 6.8

Exam item: Given the compound O=C(CC1SC(N2CCOCC2)=NC1=O)Nc1ccccc1F (stereo not given) , write its reported inhibition (viability loss, TRAIL sensitization).
Marked response: 7.68

Exam item: Look up and state reported inhibition (viability loss, TRAIL sensitization) for Oc1ccc(/C=N/Nc2nc(-c3ccccc3F)nc3ccccc23)c(O)c1
Marked response: 60.2

Exam item: Report measured inhibition (viability loss, TRAIL sensitization); entry is O=C(Nc1cccc(F)c1)N1C2CCC1CC(O)(c1cccnc1)C2 (stereo not given)
Marked response: -0.997

Exam item: Fill in reported inhibition (viability loss, TRAIL sensitization) for this entry: CCC1(C)Cc2c(sc3nnn(CC(=O)Nc4ccc(Cl)cc4)c(=O)c23)CO1 (stereo not given)
Marked response: -1.52

Exam item: Supply inhibition (viability loss, TRAIL sensitization) value. Item: Cc1cc(Cl)c(S(=O)(=O)Nc2ccc3c(c2)OCCO3)cc1OCC(N)=O
Marked response: 1.34

Okay, next one:
Exam item: Fill in reported inhibition (viability loss, TRAIL sensitization) for this entry: O=C(CN1CCN(C/C=C/c2ccccc2)CC1)Nc1ccc(F)cc1F
Marked response: 8.21

---

Assay: viability loss with TRAIL in NB7+C8 cells, primary screen, TRAIL sensitizer project, cell-based, ATPlite luminescence (AID 624354)
Details: at 10 µM
Hit rate of the full screen: of about 360,000 compounds, about 3,800 (1.1%) were called active.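 Rule for the calls: active = compounds causing at least 50% loss of cell viability in the single-dose screen, relative to plate controls; inactive = the rest.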 Shown is part of a subset that was picked to be rich in actives.
Output constraint: value belongs to y (active), n (inactive)

Exam item: Dear all, I need the recorded test outcome for N#Cc1ccc(CN2CCN(CC(=O)Nc3ccccc3C(=O)NC3CC3)CC2)cc1 , thank you.
Marked response: n

Exam item: Outcome logged for COc1ccc(C(=O)OCC(=O)c2ccc(C)c(S(=O)(=O)N3CCOCC3)c2)cc1OC in this assay:
Marked response: n

Exam item: Dear colleague, could you share the recorded outcome for CCCCCc1c(-c2cccc(Br)c2)ncn1CCc1ccccc1OC when you have a moment?
Marked response: n

Exam item: Just curious, what result did CCCCCc1c(-c2ccc(OC)c(OC)c2)ncn1CCc1ccccc1OC get here?
Marked response: y

Exam item: Test call for this molecule, please: O=C(Nc1ccc(Cl)cc1)c1cccc(OC(=S)N2CCOCC2)c1
Marked response: n

Exam item: Tell me the assay call for Cc1ccc(C(=O)Nc2ccc(C)c(S(=O)(=O)N(C)C)c2)s1 please.
Marked response: y

Lab note: next molecule to report on.
Exam item: Hi, sorry to bother you, what did the test record for Cc1ccc(C(=O)COC(=O)CCN2C(=O)C3C4CCC(C4)C3C2=O)cc1C (configuration not stated) ?
Marked response: n

---

Assay: viability loss with TRAIL in NB7+C8 cells, primary screen, TRAIL sensitizer project, cell-based, ATPlite luminescence (AID 624354)
Conditions: at 10 µM
The campaign covered roughly 360,000 compounds. About 3,800 (1.1%) were called active.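 How the source made its calls: active means compounds causing at least 50% loss of cell viability in the single-dose screen, relative to plate controls; inactive means the rest.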 Shown is part of a subset that was picked to be rich in actives.
// one of active, inactive, no free text

Consider the worked cases shown below.
Exam item: Record lookup: outcome of this test for CCOC(=O)C1CCCN(C(=O)c2sc3nc(C)nc(N4CCOCC4)c3c2C)C1 (configuration not stated) ?
Marked response: inactive

Exam item: // outcome(item) with item = CC1COc2ccccc2N1C(=O)c1ccc(F)cc1 (configuration not stated)
Marked response: inactive

Exam item: Dear colleague, could you share the recorded outcome for CCOc1ccc(N/C=C/C(=O)c2ccccc2)cc1 when you have a moment?
Marked response: active

Exam item: What did this assay record as the result for COc1ccc(-c2cc3ccc(OCc4nn[nH]n4)cc3oc2=O)cc1 ?
Marked response: active

Then there is this compound:
Exam item: So what was the verdict on Cc1ccc(-c2ccc(CN3C(C(C)C)C(=O)N(Cc4cn(CCC5OCCO5)nn4)CCS3(=O)=O)cc2)cc1 (configuration not stated) in this test?
Marked response: inactive

---

Attribute: inhibition (viability loss, TRAIL sensitization)
Test: viability loss with TRAIL in NB7+C8 cells, primary screen, TRAIL sensitizer project, cell-based, ATPlite luminescence (AID 624354)
Conditions: at 10 µM, hits give high values
Hit rate of the full screen: of about 360,000 compounds, about 3,800 (1.1%) were called active. The full list was thinned out, with actives kept by preference.
Quick reminder: number only, in %, skip the unit.

Observe how each entry below is paired with its result.
Exam item: Quote inhibition (viability loss, TRAIL sensitization) reported for Cc1nn(Cc2ccc(C(=O)N3N=C(C(F)F)CC3(O)C(F)F)cc2)c(C)c1[N+](=O)[O-] (stereo unspecified) please.
Marked response: 0.592

Exam item: Kindly indicate its recorded inhibition (viability loss, TRAIL sensitization). Item: CC(=O)Nc1cccc(C(=O)OCC(=O)c2ccc3c(c2)OCO3)c1
Marked response: 61.4

Further cases:
Exam item: Please look at this molecule and report its inhibition (viability loss, TRAIL sensitization): C=CC(COCc1ccccc1)N(CC(=O)OC)S(=O)(=O)c1cc(Br)ccc1OC (stereo unspecified)
Marked response: 2.56

---

Test: viability loss with TRAIL in NB7+C8 cells, primary screen, TRAIL sensitizer project, cell-based, ATPlite luminescence (AID 624354)
Details: at 10 µM, hits give high values
In all, about 360,000 compounds went through this assay and about 3,800 (1.1%) were called active. This is one part of a sample in which actives are shown more often than they occur.
In this section, each of the compounds is paired with its reported inhibition (viability loss, TRAIL sensitization).
Use % as the unit, but write only the number.

Below are worked cases with known answers.
Exam item: Quote inhibition (viability loss, TRAIL sensitization) reported for c1ccc(-n2ncc(-c3nn[nH]n3)n2)cc1 please.
Marked response: 8.97

Exam item: Please give the documented inhibition (viability loss, TRAIL sensitization) of CCSCc1nc(N)nc(NCCc2ccccc2)n1
Marked response: -10.6

Exam item: Tell me its inhibition (viability loss, TRAIL sensitization) given Cc1ccccc1C(=O)NNC(=O)CN1C(=O)c2ccccc2C1=O as the entry.
Marked response: -2.34

Exam item: # return recorded inhibition (viability loss, TRAIL sensitization) for entry COc1nnc(-c2ccc(C)c(S(=O)(=O)N(C)C)c2)c2ccccc12
Marked response: -6.56

Exam item: Consider the compound CC(C)NC(=O)CSc1nnc(COc2ccccc2Cl)o1 and give its recorded inhibition (viability loss, TRAIL sensitization).
Marked response: 11.2

Exam item: In one line, give reported inhibition (viability loss, TRAIL sensitization) of the entry Cc1cc(=O)[nH]c(N/N=C/c2c(C)nn(-c3ccccc3Cl)c2Cl)n1 .
Marked response: -2.12

Exam item: Tell me inhibition (viability loss, TRAIL sensitization) reported for COc1cc2nnn(-c3ccncc3)c2cc1OC
Marked response: -16.3

Exam item: Give inhibition (viability loss, TRAIL sensitization) for the following compound: Cc1cn([C@H]2C[C@H](O)[C@@H](CNC(=O)[C@H](N)Cc3cccnc3)O2)c(=O)[nH]c1=O
Marked response: -0.759

Exam item: // fetch inhibition (viability loss, TRAIL sensitization) given entry Cc1ccccc1S(=O)(=O)N1[C@@H](c2cccc(Cl)c2)C(C(=O)O)=CC[C@H]1c1ccc(Cl)cc1
Marked response: 15.5

Exam item: Give the reported value of inhibition (viability loss, TRAIL sensitization) for this record: CCOc1ccc(NC(=O)N(CCC(C)C)C(C)c2ccco2)cc1 (stereo unspecified)
Marked response: -2

Further cases:
Exam item: Input O=c1c2cc(-c3ccccc3)sc2nc2n1N=C(c1cccs1)CS2 , output reported inhibition (viability loss, TRAIL sensitization).
Marked response: 56.6

Exam item: Read off the recorded inhibition (viability loss, TRAIL sensitization) for Cc1ccc(-c2c3c(=O)n(C)c(=O)n(C)c3cn2-n2cnnc2)cc1
Marked response: -15.5

Exam item: Answer with the recorded inhibition (viability loss, TRAIL sensitization) of Cc1cccc(-n2ncc(Cl)c(Cl)c2=O)c1 only.
Marked response: 95.2

Exam item: // Input: Cc1sc2ncn(CC(=O)NCCCC(=O)N3CCN(c4ccccc4F)CC3)c(=O)c2c1C . Output its inhibition (viability loss, TRAIL sensitization) only.
Marked response: 19.6

Exam item: Return reported inhibition (viability loss, TRAIL sensitization). Input compound: O=C(NCCCN1CCCCC1)C1CC(=O)N(CCc2ccccc2)C1 (stereo unspecified)
Marked response: 1

Exam item: Check the records and state inhibition (viability loss, TRAIL sensitization) for CCOC(=O)c1c(Cc2ccc(Cl)cc2)c[nH]c1C
Marked response: -5.16

Exam item: Give reported inhibition (viability loss, TRAIL sensitization) value for Cc1ccccc1CN1C(=O)CSCC1(C)C(=O)Nc1c(C)cccc1C (stereo unspecified)
Marked response: -13

Exam item: Tell us which inhibition (viability loss, TRAIL sensitization) value is on record for Cc1ccc2nc(-c3ccncc3)cc(C(=O)Nc3ccncc3)c2c1
Marked response: 54

Exam item: Kindly indicate its recorded inhibition (viability loss, TRAIL sensitization). Item: Cc1ccc2nc(-c3ccncc3)cc(C(=O)Nc3ccc(OC(F)F)cc3)c2c1
Marked response: 14.5

Exam item: Hello, please tell me recorded inhibition (viability loss, TRAIL sensitization) for this one: Cc1ccc(-c2cc(C(=O)NCc3cn(C)nc3C)c3cc(Br)ccc3n2)cc1
Marked response: 12.3

Exam item: Entry Cc1ccccc1N(C(=O)CNC(=O)c1cccs1)C(C(=O)NC1CCCC1)c1ccncc1 (stereo unspecified) needs its inhibition (viability loss, TRAIL sensitization) filled in; supply it.
Marked response: 34.8

Exam item: // Input: O=C(/C=C/Nc1ccc(S(=O)(=O)Nc2cnc3ccccc3n2)cc1)c1cccnc1 . Output its inhibition (viability loss, TRAIL sensitization) only.
Marked response: -7.32

Exam item: Give inhibition (viability loss, TRAIL sensitization) for the following compound: COc1ccccc1-n1nnnc1S(=O)(=O)Cc1ccc(Cl)cc1
Marked response: 9

Exam item: Provide only the value of recorded inhibition (viability loss, TRAIL sensitization) for CCc1ccc(CNC(=O)C2CCN(c3nnc(C)c4c(C)n(-c5ccc(C)cc5)nc34)CC2)cc1
Marked response: 84.7

Exam item: Return inhibition (viability loss, TRAIL sensitization) (reported value) for this compound: Cc1cc(NC(=O)CCC(=O)N(Cc2ccccc2)C(C(=O)NC2CCCC2)c2ccc(C)o2)no1 (stereo unspecified)
Marked response: -0.804

Exam item: Give the reported value of inhibition (viability loss, TRAIL sensitization) for this record: Nc1c(-c2cccc(Cl)c2)cnn1-c1cccc([N+](=O)[O-])c1
Marked response: -1.5
